ASSAYED TARGET: BaIMPDHΔL
Type: biochemical, Bacillus anthracis
RUN CONDITIONS: read-out: Ki(B), observed ± std.err.

{"columns": ["COMPOUND", "OUTPUT UNIT", "Ki"],
 "data": [
  ["NC(=O)c1ccc[n+]([C@@H]2O[C@H](COP(=O)([O-])OP(=O)(O)OC[C@H]3O[C@@H](n4cnc5c(N)ncnc54)[C@H](O)[C@@H]3O)[C@@H](O)[C@H]2O)c1 [NAD^+]", "mM", 7.4]
]}

* * *

ASSAYED TARGET: BaIMPDHΔL
Assay type: biochemical, Bacillus anthracis
RUN CONDITIONS: read-out: Ki(Q,B), observed ± std.err.
QUANTITY: Ki (µM)

{"columns": ["MOL SMILES", "VALUE"],
 "data": [
  ["NC(=O)C1=CN([C@@H]2O[C@H](COP(=O)(O)OP(=O)(O)OC[C@H]3O[C@@H](n4cnc5c(N)ncnc54)[C@H](O)[C@@H]3O)[C@@H](O)[C@H]2O)C=CC1", 97]
]}
